Give measured viability at 24 h, 30 µM for each item. Keep answers brief.
assay.overview: Cytotoxicity against C57BL/6 mouse BV-2 cells assessed as survival rate at 30 uM incubated for 24 hrs by MTT assay relative to control
Format: toxicity, cell-based
reported.conditions: read-out: Survival
Respond numerically; units are % and should not be typed.

Prompt: Report viability at 24 h, 30 µM for CCN1C[C@]2(OC(=O)c3ccccc3NC(=O)S(=O)(=O)c3ccc4c(c3)OCC4)CC[C@H](OC)[C@]34C1[C@@H](C[C@H]23)[C@@]1(O)C[C@H](OC)[C@H]2C[C@@H]4[C@]1(O)[C@H]2OC please.
Response: 96.3

Prompt: Consider the molecule CCN1C[C@]2(OC(=O)c3ccccc3NC(=O)S(=O)(=O)c3ccc(F)c(Cl)c3)CC[C@H](OC)[C@]34C1[C@@H](C[C@H]23)[C@@]1(O)C[C@H](OC)[C@H]2C[C@@H]4[C@]1(O)[C@H]2OC and give its measured viability at 24 h, 30 µM.
Response: 93.6

Prompt: Tell me the measured viability at 24 h, 30 µM of CCOc1ccc(C(=O)Nc2ccccc2C(=O)O[C@@]23CC[C@H](OC)[C@]45C([C@@H](C[C@H]24)[C@@]2(O)C[C@H](OC)[C@H]4C[C@@H]5[C@]2(O)[C@H]4OC)N(CC)C3)cc1 , please.
Response: 101

Prompt: Requested read-out: viability at 24 h, 30 µM. Entry: CCN1C[C@]2(OC(=O)c3ccccc3NC(=O)S(=O)(=O)CCCCl)CC[C@H](OC)[C@]34C1[C@@H](C[C@H]23)[C@@]1(O)C[C@H](OC)[C@H]2C[C@@H]4[C@]1(O)[C@H]2OC
Response: 104

Prompt: Consider the molecule CCN1C[C@]2(O)CC[C@H](OC)[C@]34C1[C@@H](C[C@H]23)[C@@]1(O)C[C@H](OC)[C@H]2C[C@@H]4[C@]1(O)[C@H]2OC and give its measured viability at 24 h, 30 µM.
Response: 97.4

Prompt: Look up viability at 24 h, 30 µM for this molecule: CCN1C[C@]2(OC(=O)c3ccccc3NC(=O)S(=O)(=O)c3cc(F)cc(F)c3)CC[C@H](OC)[C@]34C1[C@@H](C[C@H]23)[C@@]1(O)C[C@H](OC)[C@H]2C[C@@H]4[C@]1(O)[C@H]2OC
Response: 102

Prompt: Recorded viability at 24 h, 30 µM of CCN1C[C@]2(OC(=O)c3ccccc3NC(=O)c3ccc(OC)c(OC)c3)CC[C@H](OC)[C@]34C1[C@@H](C[C@H]23)[C@@]1(O)C[C@H](OC)[C@H]2C[C@@H]4[C@]1(O)[C@H]2OC , please.
Response: 102

Prompt: What does the record list as viability at 24 h, 30 µM for CCN1C[C@]2(OC(=O)c3ccccc3NC(=O)C3CCOC3)CC[C@H](OC)[C@]34C1[C@@H](C[C@H]23)[C@@]1(O)C[C@H](OC)[C@H]2C[C@@H]4[C@]1(O)[C@H]2OC (some centres undefined) ?
Response: 109

Prompt: Sample CCN1C[C@]2(OC(=O)c3ccccc3NC(=O)S(=O)(=O)c3ccc(C)cc3F)CC[C@H](OC)[C@]34C1[C@@H](C[C@H]23)[C@@]1(O)C[C@H](OC)[C@H]2C[C@@H]4[C@]1(O)[C@H]2OC — what was its viability at 24 h, 30 µM?
Response: 106

###

assay.overview: Cytotoxicity against C57BL/6 mouse BV-2 cells assessed as survival rate at 30 uM incubated for 24 hrs by MTT assay relative to control
Format: toxicity, cell-based
reported.conditions: read-out: Survival
measurement.label: viability at 24 h, 30 µM (%)
Write the number in % without appending the unit.

Prompt: Record request: viability at 24 h, 30 µM value, item CCN1C[C@]2(OC(=O)c3ccccc3NC(=O)S(=O)(=O)c3ccc(NC(C)=O)cc3)CC[C@H](OC)[C@]34C1[C@@H](C[C@H]23)[C@@]1(O)C[C@H](OC)[C@H]2C[C@@H]4[C@]1(O)[C@H]2OC
Response: 104

Prompt: Consider the compound shown here: CCCOc1ccccc1C(=O)Nc1ccccc1C(=O)O[C@@]12CC[C@H](OC)[C@]34C([C@@H](C[C@H]13)[C@@]1(O)C[C@H](OC)[C@H]3C[C@@H]4[C@]1(O)[C@H]3OC)N(CC)C2 What is its recorded viability at 24 h, 30 µM?
Response: 106

Prompt: Which viability at 24 h, 30 µM reading was recorded for the compound CCN1C[C@]2(OC(=O)c3ccccc3NC(=O)c3cccc(C#N)c3)CC[C@H](OC)[C@]34C1[C@@H](C[C@H]23)[C@@]1(O)C[C@H](OC)[C@H]2C[C@@H]4[C@]1(O)[C@H]2OC ?
Response: 101

Prompt: Look up viability at 24 h, 30 µM for this compound: CCc1ccc(C(=O)Nc2ccccc2C(=O)OC)cc1
Response: 103

Prompt: State the recorded viability at 24 h, 30 µM for this entry: CCN1C[C@]2(OC(=O)c3ccccc3NC(=O)c3ccccc3N(C)C)CC[C@H](OC)[C@]34C1[C@@H](C[C@H]23)[C@@]1(O)C[C@H](OC)[C@H]2C[C@@H]4[C@]1(O)[C@H]2OC
Response: 101

Prompt: Query: viability at 24 h, 30 µM; subject: O=C(O)c1ccccc1NS(=O)(=O)c1ccc(Br)s1
Response: 96.5

###

assay.overview: Cytotoxicity against C57BL/6 mouse BV-2 cells assessed as survival rate at 30 uM incubated for 24 hrs by MTT assay relative to control
Type: toxicity, cell-based
reported.conditions: read-out: Survival
measurement.label: viability at 24 h, 30 µM (%)
Kindly provide the numeric value in % only, without the unit symbol.

Prompt: What viability at 24 h, 30 µM value was documented for this molecule, CCN1C[C@]2(OC(=O)c3ccccc3NC(C)=O)CC[C@H](OC)[C@]34C1[C@@H](C[C@H]23)[C@@]1(O)C[C@H](OC)[C@H]2C[C@@H]4[C@]1(O)[C@H]2OC ?
Response: 98.2

Prompt: For CCc1ccc(C(=O)Nc2ccccc2C(=O)OC[C@@]23CC[C@H](OC)[C@]45C([C@@H](C[C@H]24)[C@@]2(O)C[C@H](OC)[C@H]4C[C@@H]5[C@]2(O)[C@H]4O)N(CC)C3)cc1 , what is its reported viability at 24 h, 30 µM?
Response: 104

Prompt: May I ask what viability at 24 h, 30 µM has been recorded for CCN1C[C@]2(OC(=O)c3ccccc3NC(=O)S(=O)(=O)c3ccc(OCc4ccccc4)cc3)CC[C@H](OC)[C@]34C1[C@@H](C[C@H]23)[C@@]1(O)C[C@H](OC)[C@H]2C[C@@H]4[C@]1(O)[C@H]2OC ?
Response: 102

Prompt: Using the record for CCO/C=C/C(=O)Nc1ccccc1C(=O)O[C@@]12CC[C@H](OC)[C@]34C([C@@H](C[C@H]13)[C@@]1(O)C[C@H](OC)[C@H]3C[C@@H]4[C@]1(O)[C@H]3OC)N(CC)C2 , report its viability at 24 h, 30 µM.
Response: 110

Prompt: Given the entry CCN1C[C@]2(OC(=O)c3ccccc3NC(=O)S(=O)(=O)c3ccc(F)cc3)CC[C@H](OC)[C@]34C1[C@@H](C[C@H]23)[C@@]1(O)C[C@H](OC)[C@H]2C[C@@H]4[C@]1(O)[C@H]2OC , report its measured viability at 24 h, 30 µM.
Response: 109

Prompt: Would you kindly share the measured viability at 24 h, 30 µM for CCN1C[C@]2(OC(=O)c3ccccc3NC(=O)S(=O)(=O)c3ccccc3C(F)(F)F)CC[C@H](OC)[C@]34C1[C@@H](C[C@H]23)[C@@]1(O)C[C@H](OC)[C@H]2C[C@@H]4[C@]1(O)[C@H]2OC ?
Response: 107

Prompt: Bench note: what viability at 24 h, 30 µM did CCN1C[C@]2(OC(=O)c3ccccc3NC(=O)S(=O)(=O)c3cccc4cccnc34)CC[C@H](OC)[C@]34C1[C@@H](C[C@H]23)[C@@]1(O)C[C@H](OC)[C@H]2C[C@@H]4[C@]1(O)[C@H]2OC show?
Response: 103

Prompt: What value of viability at 24 h, 30 µM has been recorded for this entry: C=C(C)C(=O)Nc1ccccc1C(=O)O[C@@]12CC[C@H](OC)[C@]34C([C@@H](C[C@H]13)[C@@]1(O)C[C@H](OC)[C@H]3C[C@@H]4[C@]1(O)[C@H]3OC)N(CC)C2
Response: 94.2

Prompt: GET /values?readout=viability at 24 h, 30 µM&item= CCN1C[C@]2(OC(=O)c3ccccc3NC(=O)S(=O)(=O)c3cc(Cl)ccc3OC)CC[C@H](OC)[C@]34C1[C@@H](C[C@H]23)[C@@]1(O)C[C@H](OC)[C@H]2C[C@@H]4[C@]1(O)[C@H]2OC
Response: 94.9

All figures here come from ChEMBL document CHEMBL6078668.
